experimental target: NLRP3 inflammasome (Homo sapiens)
Construct: endogenous in cells
assay details: IL-1β secretion assay (NLRP3 IC50) in LPS-primed, nigericin-activated THP-1 cells, HTRF
condition: monocytic THP-1 cells; LPS 10 ng/mL 3 h priming, then compound + nigericin 10 μM 2 h; relative IC50, 10 concentrations, geometric mean
pIC50: −log10 of the molar value.
Think of 7 as a floor: if pIC50 stands on it or above, it is true (1); beneath it, false (0).

compound: Cc1cc(C)c(-c2ccc(N3CCc4c(O)cccc43)nn2)c(O)c1
discrete label: false (0)

compound: Cc1cc(C)c(-c2ccc(N3CCCC34CCCN(C)C4)nn2)c(O)c1 (stereo not shown)
discrete label: false (0)

compound: Cc1cc(N2CCO[C@@H]3CCN(C)C[C@@H]32)nnc1-c1ccc2c(c1O)CCC2
discrete label: true (1)

compound: Cc1cccc(O)c1-c1ccc(N2CC[C@H]3CCN(C)C[C@H]32)nn1 (single isomer, unassigned)
discrete label: true (1)

compound: Cc1cc(C(F)(F)F)cc(O)c1-c1ccc(N2CCO[C@@H]3CCOC[C@@H]32)nn1 (racemic)
discrete label: false (0)

compound: Cc1cc(C)c(-c2ccc(N3CCO[C@@H]4CCN(C5CCC5)C[C@@H]43)nn2)c(O)c1 (single isomer, unassigned)
discrete label: true (1)

----------
experimental target: NLRP3 inflammasome (Homo sapiens)
Construct: endogenous in cells
assay details: IL-1β secretion assay (NLRP3 IC50) in LPS-primed, nigericin-activated THP-1 cells, HTRF
condition: monocytic THP-1 cells; LPS 10 ng/mL 3 h priming, then compound + nigericin 10 μM 2 h; relative IC50, 10 concentrations, geometric mean
pIC50: −log10 of the molar value.
Think of 7 as a floor: if pIC50 stands on it or above, it is label 1; beneath it, label 0.

compound: Cc1ccc(-c2cc(C)c(N3CCO[C@H](CO)C3)nn2)c(O)c1
discrete label: label 0
--
compound: Cc1cc(C(F)(F)F)cc(O)c1-c1ccc(N2CCC[C@@H]3CCN(C)C[C@@H]32)nn1
discrete label: label 0
--
compound: CN1CC[C@@H]2CCN(c3cc(C(F)F)c(-c4ccc(C(F)(F)F)cc4O)nn3)[C@@H]2C1 (single isomer, unassigned)
discrete label: label 0
--
compound: CCc1cc(Cl)cc(O)c1-c1ccc(N2CCO[C@@H]3CCN(C(C)=O)C[C@@H]32)nn1
discrete label: label 1
--
compound: Cc1cc(Cl)cc(O)c1-c1ccc(N2CCOc3cc(O)ccc32)nn1
discrete label: label 0
--
compound: Cc1cc(C(F)(F)F)cc(O)c1-c1ccc(N2CCO[C@H]3CCN(C)C[C@H]32)nn1 (racemic) [Example 226]
discrete label: label 1

----------
Recorded measurements of pIC50, one per entry
experimental target: NLRP3 inflammasome (Homo sapiens, UniProt Q96P20)
Construct: endogenous in cells
Sequence (Q96P20 whole entry): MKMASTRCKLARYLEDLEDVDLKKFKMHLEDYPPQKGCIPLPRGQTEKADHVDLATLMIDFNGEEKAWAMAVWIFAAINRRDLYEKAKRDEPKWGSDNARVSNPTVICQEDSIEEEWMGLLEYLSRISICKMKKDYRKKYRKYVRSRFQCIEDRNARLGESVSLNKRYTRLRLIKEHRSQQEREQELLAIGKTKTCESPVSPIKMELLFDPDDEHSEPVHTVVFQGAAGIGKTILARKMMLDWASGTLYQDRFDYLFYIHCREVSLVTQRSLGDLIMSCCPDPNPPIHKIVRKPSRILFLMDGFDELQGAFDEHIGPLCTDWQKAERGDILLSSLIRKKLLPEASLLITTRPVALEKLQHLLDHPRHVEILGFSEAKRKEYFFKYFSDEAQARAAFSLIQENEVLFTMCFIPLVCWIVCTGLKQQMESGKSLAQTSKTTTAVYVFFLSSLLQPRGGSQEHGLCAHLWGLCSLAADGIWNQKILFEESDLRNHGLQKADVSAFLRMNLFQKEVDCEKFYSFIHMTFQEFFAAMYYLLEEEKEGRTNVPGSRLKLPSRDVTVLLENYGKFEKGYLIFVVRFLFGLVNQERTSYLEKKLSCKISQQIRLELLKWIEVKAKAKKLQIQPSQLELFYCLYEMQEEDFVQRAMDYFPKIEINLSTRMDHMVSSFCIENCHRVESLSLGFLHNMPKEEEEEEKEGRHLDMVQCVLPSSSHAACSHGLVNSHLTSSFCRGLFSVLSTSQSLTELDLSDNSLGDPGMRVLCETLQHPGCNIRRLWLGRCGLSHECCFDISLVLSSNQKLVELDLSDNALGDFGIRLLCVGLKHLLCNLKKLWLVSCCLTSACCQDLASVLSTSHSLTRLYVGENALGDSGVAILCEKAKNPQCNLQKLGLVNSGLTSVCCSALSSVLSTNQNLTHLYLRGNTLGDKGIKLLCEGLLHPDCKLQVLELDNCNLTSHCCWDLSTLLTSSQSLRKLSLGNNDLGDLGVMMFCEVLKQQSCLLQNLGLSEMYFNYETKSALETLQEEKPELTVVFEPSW
assay details: IL-1β secretion assay (NLRP3 IC50) in LPS-primed, nigericin-activated THP-1 cells, HTRF
condition: monocytic THP-1 cells; LPS 10 ng/mL 3 h priming, then compound + nigericin 10 μM 2 h; relative IC50, 10 concentrations, geometric mean
pIC50: −log10 of the molar value.

compound: Cc1ccc(-c2nnc(N3CC[C@H]4CCN(C)C[C@H]43)cc2C)c(O)c1 (single isomer, unassigned) [Example 375]
experimental target: NLRP3 inflammasome (Homo sapiens, UniProt Q96P20)
pIC50: 9.40
--
compound: CCc1cc(C)cc(O)c1-c1ccc(N2CC[C@@H]3CCN(C)C[C@@H]32)nn1 (racemic) [Example 459]
experimental target: NLRP3 inflammasome (Homo sapiens, UniProt Q96P20)
pIC50: 9.00
--
compound: Cc1cc(C(F)(F)F)cc(O)c1-c1ccc(N2CC[C@H](O)CC2=O)nn1 [Example 286]
experimental target: NLRP3 inflammasome (Homo sapiens, UniProt Q96P20)
pIC50: 6.82
--
compound: Cc1cc(C)c(-c2ccc(N3CC4(CCC(O)C4)C3)nn2)c(O)c1 (single isomer, unassigned) [Example 95]
experimental target: NLRP3 inflammasome (Homo sapiens, UniProt Q96P20)
pIC50: 5.66
--
compound: CCc1cc(N2CCO[C@@H]3CCN(C)C[C@@H]32)nnc1-c1ccc(C(F)(F)F)cc1O [Example 443]
experimental target: NLRP3 inflammasome (Homo sapiens, UniProt Q96P20)
pIC50: 8.00
--
compound: CC(=O)N1CC[C@H]2OCCN(c3cc(C)c(-c4ccc(C)cc4O)nn3)[C@H]2C1 [Example 431]
experimental target: NLRP3 inflammasome (Homo sapiens, UniProt Q96P20)
pIC50: 7.21
--
compound: NC1CC2(CCN(c3ccc(-c4c(O)cc(Cl)cc4Cl)nn3)CC2)C1 [Example 32]
experimental target: NLRP3 inflammasome (Homo sapiens, UniProt Q96P20)
pIC50: 5.46
